Kindly supply the reported pIC50 values for the records listed here.
biological target: C-X-C chemokine receptor type 6 (Homo sapiens) (UniProt O00574); test: antagonism across CCR6, APJ and CXCR6 receptors, profiling panel, selectivity assay for CXCR6 antagonist project, cell-based, CHO-K1 PathHunter beta-arrestin, luminescence, set 3 (AID 651708); conditions: antagonist mode, CXCR6, run 2
Sequence (O00574 whole entry, looked up): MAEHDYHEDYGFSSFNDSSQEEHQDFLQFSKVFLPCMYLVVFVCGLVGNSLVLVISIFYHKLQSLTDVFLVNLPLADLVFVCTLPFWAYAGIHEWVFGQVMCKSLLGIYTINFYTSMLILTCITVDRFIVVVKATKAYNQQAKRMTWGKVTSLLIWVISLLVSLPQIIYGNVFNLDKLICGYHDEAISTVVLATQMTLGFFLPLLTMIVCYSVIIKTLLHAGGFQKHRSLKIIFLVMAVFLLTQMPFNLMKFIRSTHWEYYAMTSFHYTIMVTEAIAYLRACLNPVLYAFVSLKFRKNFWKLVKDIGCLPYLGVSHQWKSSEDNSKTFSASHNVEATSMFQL
pIC50: −log10 of the molar value.

**Q:** Given COc1cccc(C(=O)NC2CC3CCCC(C2)N3CC(=O)Nc2ccc(C)cc2)c1 (configuration not stated) , state its recorded pIC50.
**A:** < 4.10

**Q:** Bench note: what pIC50 did COc1cc(C(=O)NC2CC3CCCC(C2)N3CC(=O)Nc2ccc(C)cc2)cc(OC)c1OC (configuration not stated) show?
**A:** 5.22

**Q:** Tell me the measured pIC50 of O=C(CN1C2CCCC1CC(NC(=O)c1ccc3c(c1)OCO3)C2)Nc1ccc(F)cc1 (configuration not stated) , please.
**A:** < 4.10

**Q:** Fill in the blank: the reported pIC50 of COc1cccc(C(=O)NC2CC3CCCC(C2)N3CC(=O)Nc2ccc(F)cc2)c1 (configuration not stated) is ____.
**A:** < 4.10

**Q:** Endpoint output: pIC50 of COc1cc(C(=O)NC2CC3CCCC(C2)N3CC(=O)Nc2ccc(F)cc2)cc(OC)c1OC (configuration not stated) . Value?
**A:** 5.40

**Q:** Reported pIC50 for COc1cc(OC)cc(C(=O)NC2CC3CCCC(C2)N3CC(=O)Nc2ccccc2)c1 (configuration not stated) : what is it?
**A:** < 4.10

**Q:** What pIC50 value was documented for this compound, COc1ccc(NC(=O)CN2C3CCCC2CC(NC(=O)c2ccc4c(c2)OCO4)C3)cc1 (configuration not stated) ?
**A:** < 4.10

**Q:** Suppose we examine the compound COc1ccccc1NC(=O)CN1C2CCCC1CC(NC(=O)c1cc(OC)c(OC)c(OC)c1)C2 (configuration not stated) ; what pIC50 value has been reported?
**A:** 5.68

**Q:** Can you look up the measured pIC50 of COc1ccc(C(=O)NC2CC3CCCC(C2)N3CC(=O)Nc2ccc(F)cc2)cc1OC (configuration not stated) for me?
**A:** < 4.10

**Q:** Could you share which pIC50 value was measured for COc1ccc(C(=O)NC2CC3CCCC(C2)N3CC(=O)Nc2ccc(Cl)cc2)cc1OC (configuration not stated) ?
**A:** < 4.10

**Q:** I have this compound here, COc1cc(C(=O)NC2CC3CCCC(C2)N3CC(=O)Nc2ccc(Cl)cc2)cc(OC)c1OC (configuration not stated) , and I need its recorded pIC50.
**A:** 5.78

**Q:** GET /values?readout=pIC50&item= COc1ccc(NC(=O)CN2C3CCCC2CC(NC(=O)c2ccc(OC)cc2)C3)cc1 (configuration not stated)
**A:** < 4.10

**Q:** Given the entry COc1cc(C(=O)NC2CC3CCCC(C2)N3CC(=O)Nc2ccccc2Cl)cc(OC)c1OC (configuration not stated) , report its measured pIC50.
**A:** 6.32

**Q:** Entry COc1ccc(C(=O)NC2CC3CCCC(C2)N3CC(=O)Nc2ccc(C)cc2)cc1OC (configuration not stated) has what pIC50?
**A:** < 4.10

**Q:** Which pIC50 is listed for COc1ccc(NC(=O)CN2C3CCCC2CC(NC(=O)c2cccc(OC)c2)C3)cc1 (configuration not stated) ?
**A:** < 4.10

**Q:** What value of pIC50 has been recorded for this entry: COc1ccc(C(=O)NC2CC3CCCC(C2)N3CC(=O)Nc2ccc(Cl)cc2)cc1 (configuration not stated)
**A:** < 4.10

**Q:** Look up pIC50: O=C(CN1C2CCCC1CC(NC(=O)c1ccc3c(c1)OCO3)C2)Nc1ccccc1 (configuration not stated)
**A:** < 4.10

**Q:** Given the entry O=C(CN1C2CCCC1CC(NC(=O)c1ccccc1)C2)Nc1ccccc1 (configuration not stated) , report its measured pIC50.
**A:** < 4.10

**Q:** Which pIC50 reading was recorded for the compound COc1ccc(NC(=O)CN2C3CCCC2CC(NC(=O)c2ccc(OC)c(OC)c2)C3)cc1 (configuration not stated) ?
**A:** < 4.10

**Q:** Entry under review: COc1ccc(C(=O)NC2CC3CCCC(C2)N3CC(=O)Nc2ccccc2)cc1 (configuration not stated) . Reported pIC50?
**A:** < 4.10

**Q:** Item Cc1ccc(NC(=O)CN2C3CCCC2CC(NC(=O)c2ccc4c(c2)OCO4)C3)cc1 (configuration not stated) has what recorded pIC50?
**A:** < 4.10

**Q:** Please report the recorded pIC50 for COc1cc(OC)cc(C(=O)NC2CC3CCCC(C2)N3CC(=O)Nc2ccc(F)cc2)c1 (configuration not stated) .
**A:** < 4.10
